Biological target: OsSMF1 (Oryza sativa, UniProt Q6ZLB0 1-436)
Sequence: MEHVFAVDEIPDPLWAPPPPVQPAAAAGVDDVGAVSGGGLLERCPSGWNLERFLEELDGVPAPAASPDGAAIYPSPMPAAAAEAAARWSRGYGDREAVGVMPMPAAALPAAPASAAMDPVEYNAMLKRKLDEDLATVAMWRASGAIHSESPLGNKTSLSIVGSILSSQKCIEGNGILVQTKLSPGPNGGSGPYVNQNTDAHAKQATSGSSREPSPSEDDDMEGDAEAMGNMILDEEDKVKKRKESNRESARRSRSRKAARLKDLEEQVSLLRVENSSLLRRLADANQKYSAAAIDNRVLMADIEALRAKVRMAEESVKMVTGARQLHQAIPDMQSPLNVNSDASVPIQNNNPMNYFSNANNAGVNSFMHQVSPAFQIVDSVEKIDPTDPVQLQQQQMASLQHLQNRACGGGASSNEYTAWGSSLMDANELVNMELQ
Test: protein-binding microarray (RPBM); PBS, 2% BSA, 51.3 ng/ul salmon testes DNA, 50 uM zinc acetate, 200 nM TF, 25 C, 1 h; high values mean tight binding
Details: protein: recombinant; tags: N-terminal polyhistidine and DsRed monomer fusion (pET32a); chain copies: 2; label: CyDye5-dUTP incorporated in the synthesized complementary strand; 3' TTTTT single-stranded linker to array surface; dsDNA, one strand shown
Whole data set: some 39,000 sequences, median “fluorescence intensity (a.u.)” near 4,300, cut for the highest 2% near 39,000. The entries come from a sample that favours the highest values as a whole.

{"columns": ["monomerSequence", "binding signal"],
 "data": [
  ["TGGTGCGCTCGTTAAGCCAGCTCGGTTTATGTTAGATCATCGGAGTCACCTAGTGCAG", "3210 fluorescence intensity (a.u.)"],
  ["CTGGGCAAAATCTCTCCCATACATACACTACAGCGGCGAACGGAGTCACCTAGTGCAG", "3290 fluorescence intensity (a.u.)"],
  ["GAAGATAGTACTAACTATATTTTGTAACGGAGAGATTGTTCGGAGTCACCTAGTGCAG", "4130 fluorescence intensity (a.u.)"],
  ["CTTCTTTCCCGCACGCGCGGCTCGCGCATGCATGCACGATCGGAGTCACCTAGTGCAG", "15000 fluorescence intensity (a.u.)"],
  ["CCACGGGTTCTTCCTCGATGCCTTCTCCGGCGCCGTCCGGCGGAGTCACCTAGTGCAG", "45300 fluorescence intensity (a.u.)"],
  ["CCGTCTTCTTCCTCCACGTTCCTATCCATGGCGCCAGTTCCGGAGTCACCTAGTGCAG", "41400 fluorescence intensity (a.u.)"],
  ["CCTTCCAACATGTTTATTATGCATGAGATGTGTGCAACGACGGAGTCACCTAGTGCAG", "3360 fluorescence intensity (a.u.)"],
  ["GGCGTATTCCAAAAGCCTTGGCCACCATTATTGCGTGGCACGGAGTCACCTAGTGCAG", "6820 fluorescence intensity (a.u.)"],
  ["GCCTTCTTCCTCGCCTGCGGCCGTCTCCGCCACCTCGACCCGGAGTCACCTAGTGCAG", "4040 fluorescence intensity (a.u.)"],
  ["TCATCTCATCTCTCCACGTCACCCGACTCCGACTCCGTGGCGGAGTCACCTAGTGCAG", "16900 fluorescence intensity (a.u.)"],
  ["TACAAGTATAAAACTTTAGATACGTGGGATTAACACGTCACGGAGTCACCTAGTGCAG", "6470 fluorescence intensity (a.u.)"],
  ["GATTAATACGACTACTGTCATACGTACTGTACATGTCATGCGGAGTCACCTAGTGCAG", "3720 fluorescence intensity (a.u.)"],
  ["GGTTGCCATATTTGCTTGTTATGCCGATGTGGACAAGCTTCGGAGTCACCTAGTGCAG", "5600 fluorescence intensity (a.u.)"],
  ["TCATCATCATCATCATTATTAAAGTAAATTTCAGAAAACTCGGAGTCACCTAGTGCAG", "21600 fluorescence intensity (a.u.)"],
  ["TGCTTTCCTCCCTTTATTACTACATCATGCGCCTTCGTGACGGAGTCACCTAGTGCAG", "3370 fluorescence intensity (a.u.)"],
  ["AAGAGGATGGCTGGGAGGATGACATGTGGAGCCCACATGGCGGAGTCACCTAGTGCAG", "4450 fluorescence intensity (a.u.)"],
  ["TTTGCATTGACTTGATATAGTATGTCACCATCACACTATCCGGAGTCACCTAGTGCAG", "5460 fluorescence intensity (a.u.)"],
  ["GTATTGGAGCTCTACAGTTCGGTCTACTCCTCTCTGTTGCCGGAGTCACCTAGTGCAG", "27500 fluorescence intensity (a.u.)"],
  ["CAACCATGGCGTCATCCTCTTCCTCCTCCTCCTCCTCCTCCGGAGTCACCTAGTGCAG", "5800 fluorescence intensity (a.u.)"]
]}

Reference for the values: paper PMC7819943
